ASSAY: from KURIHARA, Norio.; Fujita, Toshio. (1983). Composition of Partition Coefficients of Polychlorinated Hydrocarbons (Commemoration Issue Dedicated to Professor Yuzo Inouye on the Occasion of his …
ATTRIBUTE_MEASURED: logP
Answer using only a numeral; do not append any unit.

Q: If you can, please state the reported logP value of ClC1C=CCC(Cl)C1Cl (stereo unspecified) .
A: 2.84

* * *

ASSAY: method code SF-GLC, from Hashimoto, S.; Schneider, S.; Yamamoto, T.; Morita, M. (1994). Aqueous solubility and octanol-water partition coefficient of 3,3',4,4'-tetrachloroazobenzene. 20, 125-128.
ATTRIBUTE_MEASURED: logP
Number only, no unit.

Q: Any idea what logP was measured for Clc1ccc(/N=N/c2ccc(Cl)c(Cl)c2)cc1Cl ?
A: 5.53

* * *

ASSAY: method code SF-AS, from DOI: 10.3390/molecules16097565, PMID: 21894089
ATTRIBUTE_MEASURED: logP
Output spec: single numeric token, no unit.

Q: Give the measured logP of C[C@H](c1nc2ccc(F)cc2s1)N1C(=O)C(=O)N(c2ccccc2)C1=O .
A: 1.51

* * *

ASSAY: method code SF-RC, from DOI: 10.1016/s0969-8051(02)00326-8, PMID: 12234587
CONDITION_NOTES: pH 7.4
ATTRIBUTE_MEASURED: logD

Oc1ccc(-c2cc3cc(I)ccc3o2)cc1: 2.97
CN(C)c1ccc(-c2cc3cc(I)ccc3o2)cc1: 2.35

Q: Which measured logD value corresponds to CN(C)c1ccc(-c2cc3ccc(I)cc3o2)cc1 ?
A: 2.12

* * *

ASSAY: method code SF-AS, from DOI: 10.1016/0005-2736(69)90054-6, PMID: 5349616
CONDITION_NOTES: pH 7.4
ATTRIBUTE_MEASURED: logD
Give a plain numeric answer without units written out.

c1ccc2c(c1)[nH]c1ccccc12: 3.29

Q: I am curious: what logD value has been reported for Cc1cc2ccccc2n1C ?
A: 2.82

* * *

ASSAY: method code SF-C, from DOI: 10.1021/ja00901a033
ATTRIBUTE_MEASURED: logP
// keep it numeric: no unit symbol after the value

CC(=O)c1ccc(OCC(=O)O)cc1: 1.08

Continue with the next compound.
Q: Bench note: what logP did O=C(O)COc1ccc(Br)cc1 show?
A: 2.45

* * *

ASSAY: method code SF-AS, from DOI: 10.1021/jm00223a031, PMID: 810572
ATTRIBUTE_MEASURED: logP
Give your answer as a number; write no unit.

Cc1ccnc2c(O)cccc12: 2.36

Q: For Oc1cccc2c(Cl)ccnc12 , what is its reported logP?
A: 2.67

Q: Recorded logP for COc1ccc(O)c2ncccc12 , please?
A: 2.06

* * *

ASSAY: method code SF-RC, from DOI: 10.1016/0969-8051(94)00118-4, PMID: 7550031
CONDITION_NOTES: pH 7.4
ATTRIBUTE_MEASURED: logD
A bare number is all that is needed in reply.

Q: For the compound shown here, COc1cc2c(cc1OC)C1CC(O)(C=CI)C(CC(C)C)CN1CC2 (stereo unspecified) , give the reported logD.
A: 3.24

* * *

ASSAY: method code SF-AS, from DOI: 10.1016/0378-5173(82)90005-9
CONDITION_NOTES: pH 3.0
ATTRIBUTE_MEASURED: logD
I only need the number, thanks.

Q: Return reported logD; argument: O=C1NC(=S)NC(=O)C12CCCCC2
A: 1.78

* * *

ASSAY: method code SF, from Brown, J.; Yu, N.; Cory, M.; Bicknell, R.; Taylor, D. (1978). In vivo evaluation of the radiosensitizing and cytotoxic properties of newly synthesized electron-affinic drugs. 3, 206-211.
ATTRIBUTE_MEASURED: logP
// no unit string in output, number only

Q: // lookup logP for CC(O)Cn1ccnc1[N+](=O)[O-] (stereo unspecified)
A: -0.16

* * *

ASSAY: method code SF-AS, from Halmekoski, J.; Hannikainen, H. (1964). Rm values of hydroxy-substituted benzoic acids and partition coefficients of the acids between water and aliphatic alcohols. Suomen Kemist. B, 37, 221-226.
ATTRIBUTE_MEASURED: logP
// print number alone

Q: Need logP of O=C(O)c1cc(O)ccc1O , thanks.
A: 1.12

* * *

Each record here notes measured logP.
Could you keep your reply to the number by itself?

ClCc1cccc(CCl)c1: 2.72
Nc1ccc(Cl)cc1Cl: 2.64

Consider the additional molecule presented here.
Q: Please give the measured logP for this molecule: ClC(Cl)=C(Cl)C(Cl)=C(Cl)Cl
A: 4.74

* * *

ASSAY: method code SF-HPLC, from DOI: 10.1016/j.ejmech.2008.06.022, PMID: 18687506
CONDITION_NOTES: pH 7.4
ATTRIBUTE_MEASURED: logD
No unit in the answer, please; the number alone is enough.

Q: Give its logD value. Item: CC(=O)NCC(=O)NN=Nc1ccc(C#N)cc1
A: 1.1

* * *

ASSAY: method code SF, from PMID: 7412765
CONDITION_NOTES: pH 7.0
ATTRIBUTE_MEASURED: logD
Respond using a number only.

Q: # logD lookup, item CCCC(C)C1(CC)C(=O)NC(=O)NC1=O (stereo unspecified)
A: 1.75

* * *

ASSAY: method code G-RC, from DOI: 10.1016/0300-483x(85)90031-9, PMID: 4049435
ATTRIBUTE_MEASURED: logP
Hey, just send me the number, nothing else.

Q: What value of measured logP is listed for c1ccc2c(c1)ccc1[nH]c3ccc4ccccc4c3c12 ?
A: 5.55

* * *

ASSAY: method code SF-HPLC, from DOI: 10.1016/j.bmc.2009.06.014, PMID: 19586774
CONDITION_NOTES: pH 7.4
ATTRIBUTE_MEASURED: logD
Number, no unit, nothing else.

Q: What does the record list as logD for CCc1cc(Cl)cc2[nH]c(=O)c(-c3cccc(NC)c3)c(O)c12 ?
A: 1.92

* * *

ASSAY: method code SF-AS, from DOI: 10.1111/j.1440-1681.1976.tb00621.x, PMID: 10116
ATTRIBUTE_MEASURED: logP
# output: bare number, no unit

Previously resolved entries follow.
CC(C)C(Br)C(=O)NC(N)=O (stereo not drawn): 1.14
CC(C)C(Cl)C(=O)NC(N)=O (stereo not drawn): 1

Next, consider the following compound.
Q: Could you share which logP value was measured for CCC(Br)(CC)C(=O)NC(N)=O ?
A: 1.54

* * *

ASSAY: method code SF-RC, from DOI: 10.1021/jm00360a016, PMID: 6854590
ATTRIBUTE_MEASURED: logP
# answer = number (no unit)

Q: What value of logP has been recorded for this entry: O=c1ccc2ccc3occc3c2o1
A: 2.08

* * *

Each item that follows carries a reported logP.
Lab note: jot down the number only; don't add units.

FC(F)(F)c1cccc(C2CNCCO2)c1 (stereo not given): 2.18
c1ccc(C2CNCCO2)cc1 (stereo not given): 1.11
CC(C)N1CCOC(c2ccccc2)C1 (stereo not given): 2.3
c1ccc(CN2CCOCC2)cc1: 1.58

Now turn to the next compound.
Q: Request the reported logP associated with Fc1cccc(C2CNCCO2)c1 (stereo not given)
A: 1.42

* * *

ASSAY: method code SF-RC, from DOI: 10.1002/ps.2780130506
ATTRIBUTE_MEASURED: logP

CSc1cccc(NC(N)=O)c1: 1.57

Okay, next one:
Q: Given NC(=O)Nc1ccc(Cl)cc1 , state its recorded logP.
A: 1.8

* * *

ATTRIBUTE_MEASURED: logP
Provide a numeric answer; units are not to be included.

O=P(Oc1ccccc1)(Oc1ccccc1)Oc1ccccc1: 3.9

Next compound, logP to be filled in.
Q: // returns reported logP for input Cc1ccc(OP(=O)(Oc2ccccc2)Oc2ccccc2)cc1
A: 4.4

* * *

ASSAY: method code SF-HPLC, from Thijssen, W. (1981). The relationship between Log P, Rm, log k' and the constants pi and f: a study on penicillins. Eur J Med Chem, 16(5)449-452.
# Lookup of reported logP keyed by entry
Quick one: just the number, no unit, thanks!

Cc1onc(-c2c(Cl)ccc(O)c2F)c1C(=O)NC1SC2N(C1=O)C(C(=O)O)C2(C)C (stereo not drawn): 2.23
Cc1onc(-c2c(Cl)cccc2Cl)c1C(=O)NC1C(=O)N2C1S(=O)C(C)(C)C2C(=O)O (stereo not drawn): 2.57

Please find the next compound below.
Q: # logP lookup, item Cc1onc(-c2ccccc2Cl)c1C(=O)NC1C(=O)N2C1S(=O)C(C)(C)C2C(=O)O (stereo not drawn)
A: 2

* * *

ASSAY: from Pratesi, P.; Villa, L.; Ferri, V.; DeMicheli, C.; Grana, E.; Grieco, C.; Silipo, C.; Vittoria, A. (1979). On the additive-constitutive properties of substituent hydrophobic parameters in a set of …
compounds and their reported logP
Number, no unit, nothing else.

CNS(=O)(=O)c1ccccc1: 0.92
O=S(=O)(O)c1ccc2ccccc2c1: 1.07
N#CCCOc1ccccc1: 1.61

Let's switch to this compound now.
Q: Entry Oc1ccc(C2CCCCC2)cc1 : reported logP = ?
A: 4.22
